Would you mind telling me the reported EC50 of each entry?
- Test system: hepatitis C replicon
- assay_remarks: hepatitis C replicon EC50 assay
- Type: cell-based, hepatitis C virus (HCV)
- condition_summary: Hepatitis C virus; hepatitis C replicon; read-out: EC50

Previously resolved entries follow.
compound	EC50
C=C[C@@H]1C[C@]1(NC(=O)[C@H]1N(C(=O)C(NC(=O)OC(C)(C)C)C(C)(C)C)C[C@H](Oc2cc(-c3nc(C(C)C)cs3)nc3c(C)c(OC)ccc23)C1(C)C)C(=O)NS(=O)(=O)C1(C)CC1 (some centres unmarked)	> 0.1 µM
C=C[C@@H]1C[C@]1(NC(=O)[C@@H]1[C@H](C)[C@@H](Oc2cc(-c3nc(C(C)C)cs3)nc3c(C)c(OC)ccc23)CN1C(=O)[C@@H](NC(=O)OC(C)(C)C)C(C)(C)C)C(=O)NS(=O)(=O)C1(C)CC1	< 0.01 µM
COc1cnc(O[C@H]2CN3C(=O)[C@@H](NC(=O)OC(C)(C)C)CCCCC/C=C\[C@@H]4C[C@@]4(C(=O)O)NC(=O)[C@@H]3[C@@H]2C)c2cc(Cl)ccc12	> 0.1 µM
C=C[C@@H]1C[C@]1(NC(=O)[C@@H]1[C@H](C)[C@@H](Oc2cc(-c3nc(C(C)C)cs3)nc3c(C)c(OC)ccc23)CN1C(=O)[C@@H](NC(=O)OC(C)(C)C)C(C)(C)C)C(=O)NS(=O)(=O)C1CC1	< 0.01 µM

Give measured EC50 for every item shown.
1. COc1ccc2c(O[C@H]3CN4C(=O)[C@@H](NC(=O)OC(C)(C)C)CCCCC/C=C\[C@@H]5C[C@@]5(C(=O)NS(=O)(=O)C5CC5)NC(=O)[C@@H]4[C@@H]3C)cc(-c3nc(C(C)C)cs3)nc2c1C
2. COc1ccc2c(O[C@H]3CN4C(=O)[C@@H](NC(=O)OC(C)(C)C)CCCCC/C=C\[C@@H]5C[C@@]5(C(=O)NS(=O)(=O)C5(C)CC5)NC(=O)[C@@H]4[C@@H]3C)cc(-c3nc(C(C)C)cs3)nc2c1C
3. C=C[C@@H]1C[C@]1(NC(=O)[C@@H]1[C@H](C)[C@@H](Oc2ncc(OC)c3ccc(Cl)cc23)CN1C(=O)[C@@H](NC(=O)OC(C)(C)C)C(C)(C)C)C(=O)NS(=O)(=O)C1(C)CC1
4. C=C[C@@H]1C[C@]1(NC(=O)[C@@H]1[C@H](C)[C@@H](Oc2cc(-c3nc(C(C)C)cs3)nc3c(C)c(OC)ccc23)CN1C(=O)[C@@H](N)C(C)(C)C)C(=O)NS(=O)(=O)C1CC1
5. COc1ccc2c(O[C@H]3CN4C(=O)[C@@H](NC(=O)OC(C)(C)C)CCCCC/C=C\[C@@H]5C[C@@]5(C(=O)NS(=O)(=O)C5(C)CC5)NC(=O)[C@@H]4C3(C)C)cc(-c3nc(C(C)C)cs3)nc2c1C
6. C=C[C@@H]1C[C@]1(NC(=O)[C@@H]1[C@H](C)[C@@H](Oc2ncc(OC)c3ccc(Cl)cc23)CN1C(=O)[C@@H](NC(=O)OC(C)(C)C)C(C)(C)C)C(=O)O
7. COc1cnc(O[C@H]2CN3C(=O)[C@@H](NC(=O)OC(C)(C)C)CCCCC/C=C\[C@@H]4C[C@@]4(C(=O)NS(=O)(=O)C4(C)CC4)NC(=O)[C@@H]3[C@@H]2C)c2cc(Cl)ccc12

Key:
["< 0.01 µM", "< 0.01 µM", "< 0.01 µM", "> 0.1 µM", "> 0.1 µM", "> 0.1 µM", "< 0.01 µM"]
